Reference source for all entries: paper PMC10892019

system: CmedOBP26 (Cnaphalocrocis medinalis)
Sequence (A0A1P8SKA7 entry or part of it): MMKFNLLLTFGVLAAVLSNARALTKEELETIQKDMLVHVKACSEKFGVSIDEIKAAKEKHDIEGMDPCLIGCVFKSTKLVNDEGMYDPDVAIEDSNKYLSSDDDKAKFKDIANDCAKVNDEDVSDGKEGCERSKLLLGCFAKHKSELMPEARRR
measurement-protocol: Fluorescence competitive binding assay (1-NPN) with CmedOBP26
reported-conditions: CmedOBP26; read-out: Ki value
recorded-metric: Ki

# Ki (compound: `CCCCCCCO` ) is 20 to 50 µM

====

Reported Ki values for the following molecules.
system: CmedGOBP1 (Cnaphalocrocis medinalis)
Sequence (H9XFD0 entry or part of it): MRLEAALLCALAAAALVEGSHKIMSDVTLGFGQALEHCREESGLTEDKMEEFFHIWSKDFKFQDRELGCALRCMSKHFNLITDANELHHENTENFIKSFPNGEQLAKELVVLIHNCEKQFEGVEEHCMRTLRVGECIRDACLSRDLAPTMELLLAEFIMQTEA
measurement-protocol: Fluorescence competitive binding assay (1-NPN) with CmedGOBP1
reported-conditions: CmedGOBP1 2 μM, 1-NPN probe 2 μM; calculated from IC50; read-out: Ki

* CC(=O)OCc1ccccc1 [Benzyl Acetate, benzyl acetate] | > 50 µM

Note: attention shifts to another entry.
For reference, reported Ki for CCCCCCCO [1-Heptanol, 1-heptanol] stands at > 50 µM
